Source: ChEMBL document CHEMBL3763116

pIC50: −log10 of the molar value.
Target or system 11-beta-hydroxysteroid dehydrogenase 1 (Homo sapiens, UniProt P28845): recorded pIC50 listed per item.

Below: 10 compounds and their reported pIC50.
{"compound": "CC(C)C1=CC[C@H](Cn2cc(CNC(=O)OC(C)(C)C)nn2)[C@@]12C=CC(=O)CC2", "experimentalTarget": "11-beta-hydroxysteroid dehydrogenase 1 (Homo sapiens, UniProt P28845)", "dataValue": "< 3.00"}
{"compound": "CC(C)C1=CC[C@H](CO)[C@]12CCC(=O)[C@H]1O[C@H]12", "experimentalTarget": "11-beta-hydroxysteroid dehydrogenase 1 (Homo sapiens, UniProt P28845)", "dataValue": "< 3.00"}
{"compound": "CC(C)C1=CC[C@H](CO)[C@@]12C=C[C@](C)(O)CC2", "experimentalTarget": "11-beta-hydroxysteroid dehydrogenase 1 (Homo sapiens, UniProt P28845)", "dataValue": "< 3.00"}
{"compound": "CC(C)C1=CC[C@H](CO)[C@]12CC[C@@](C)(O)[C@@H](O)C2", "experimentalTarget": "11-beta-hydroxysteroid dehydrogenase 1 (Homo sapiens, UniProt P28845)", "dataValue": "< 3.00"}
{"compound": "CC(C)C1=CC[C@H](CS(=O)(=O)c2nc3ccccc3o2)[C@@]12C=CC(=O)CC2", "experimentalTarget": "11-beta-hydroxysteroid dehydrogenase 1 (Homo sapiens, UniProt P28845)", "dataValue": "< 3.00"}
{"compound": "O=C1C=C[C@@]2(CC1)c1ccccc1C[C@@H]2C(=O)O", "experimentalTarget": "11-beta-hydroxysteroid dehydrogenase 1 (Homo sapiens, UniProt P28845)", "dataValue": "< 3.00"}
{"compound": "CC(C)[C@@H]1CC[C@H](CO)[C@]12CC[C@@](C)(O)[C@H]1O[C@H]12", "experimentalTarget": "11-beta-hydroxysteroid dehydrogenase 1 (Homo sapiens, UniProt P28845)", "dataValue": "< 3.00"}
{"compound": "CC(C)C1=CC[C@H](CS(=O)(=O)c2nnnn2-c2ccccc2)[C@@]12C=CC(=O)CC2", "experimentalTarget": "11-beta-hydroxysteroid dehydrogenase 1 (Homo sapiens, UniProt P28845)", "dataValue": 3.61}
{"compound": "CC(C)[C@@H]1CC[C@@H]2CO[C@@H]3C[C@](C)(O)CC[C@]231", "experimentalTarget": "11-beta-hydroxysteroid dehydrogenase 1 (Homo sapiens, UniProt P28845)", "dataValue": "< 3.00"}
{"compound": "CC(C)C1=CC[C@H](CO)[C@]12CC[C@](C)(O)[C@@H](O)C2", "experimentalTarget": "11-beta-hydroxysteroid dehydrogenase 1 (Homo sapiens, UniProt P28845)", "dataValue": "< 3.00"}

For each listed entry, give its pIC50.
1. O=C1CC[C@@]2(c3ccccc3C[C@@H]2CO)[C@@H]2O[C@H]12
2. CC(C)C1=CC[C@H](C(=O)Nc2ncc(-c3ccc(Cl)cc3)s2)[C@@]12C=CC(=O)CC2
3. C[C@H]1CC[C@@]2(c3ccccc3C[C@@H]2C(=O)O)[C@H](O)[C@@H]1O
4. CC1=CC[C@H](CO)[C@@]12C=CC(=O)CC2
5. CC1=CC[C@@]2(c3ccccc3C[C@@H]2C(=O)O)[C@H](O)[C@@H]1O
6. CC(C)C1=CC[C@H](CSc2nc3ccccc3o2)[C@@]12C=CC(=O)CC2
7. CC(C)C1=CC[C@H](CO)[C@]12CC[C@](C)(O)[C@H]1O[C@H]12

Output:
1. < 3.00
2. 3.91
3. < 3.00
4. < 3.00
5. < 3.00
6. < 3.00
7. < 3.00
